System under test: GSK3β (Homo sapiens)
Sequence (P49841 whole entry, species assumed): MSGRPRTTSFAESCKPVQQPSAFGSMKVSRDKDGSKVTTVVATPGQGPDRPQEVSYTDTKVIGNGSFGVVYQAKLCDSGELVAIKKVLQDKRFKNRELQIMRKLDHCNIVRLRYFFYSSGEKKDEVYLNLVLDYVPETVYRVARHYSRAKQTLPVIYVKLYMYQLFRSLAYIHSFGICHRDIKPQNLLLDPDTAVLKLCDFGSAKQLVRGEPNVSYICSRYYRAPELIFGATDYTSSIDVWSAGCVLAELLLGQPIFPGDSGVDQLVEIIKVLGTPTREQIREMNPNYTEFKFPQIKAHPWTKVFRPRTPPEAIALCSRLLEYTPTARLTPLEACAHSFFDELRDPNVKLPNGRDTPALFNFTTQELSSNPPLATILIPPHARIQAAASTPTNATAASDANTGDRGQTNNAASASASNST
Test details: GSK3beta assay (SPA, biotinylated phosphorylated CREB peptide, ATP-P33)
Format: biochemical
Measurement setup: −log IC50 (M); given as ranges (>8; 7-8; <7); read-out: pIC50 (GSK3beta) (converted)
Property measured: IC50

The reported IC50 of the compound CC(C)(C)OC(=O)NCc1cccc(-n2nnc3cnc(Nc4ccc(F)cc4)nc32)c1 was < 1e-08 M

Per the record, Fc1cccc(-n2nnc3cnc(Nc4ccc(OC(F)F)cc4)nc32)c1 has IC50 of 1e-08 to 1e-07 M

IC50 recorded for this compound, COc1cccc(-n2nnc3cnc(Nc4cccc(C(C)O)c4)nc32)c1 (centres unmarked) , is < 1e-08 M

Entry under test: CC(=O)NCc1cccc(-n2nnc3cnc(Nc4ccc(C(=O)O)cc4)nc32)c1 . Its IC50 was < 1e-08 M

Please fill in: IC50 reported for O=C(NCc1cccc(-n2nnc3cnc(Nc4ccc(CCO)cc4)nc32)c1)C12CC3CC(CC(C3)C1)C2 = 1e-08 to 1e-07 M

// sample N#CCc1cccc(-n2nnc3cnc(Nc4ccc(CNCC(F)(F)F)cc4)nc32)c1 , its IC50 was < 1e-08 M

The reported value for CCOC(=O)NCc1cccc(-n2nnc3cnc(Nc4ccc(C(N)=O)cc4)nc32)c1 in terms of IC50 is < 1e-08 M

Reported IC50 ( CCOC(=O)NCc1cccc(-n2nnc3cnc(Nc4cccc(NS(C)(=O)=O)c4)nc32)c1 ) = < 1e-08 M
